This listing pairs compounds with measured Kass for factor Xa.
Target: human factor Xa (Homo sapiens, UniProt P00742)
Construct: enzyme solution (e.g., human factor Xa, 32 nM in 0.03 M Tris, 0.15 M NaCl, 1 mg/mL HAS)
Sequence (P00742 235-488 limits assumed): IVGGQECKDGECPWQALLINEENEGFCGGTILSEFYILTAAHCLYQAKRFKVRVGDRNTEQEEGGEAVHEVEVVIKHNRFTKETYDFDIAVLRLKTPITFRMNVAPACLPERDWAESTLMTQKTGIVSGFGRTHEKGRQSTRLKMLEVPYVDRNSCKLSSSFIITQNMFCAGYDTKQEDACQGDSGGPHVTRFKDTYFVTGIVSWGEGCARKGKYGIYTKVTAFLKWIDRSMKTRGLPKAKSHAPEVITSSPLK
Sequence (P00742 41-179 partner limits assumed): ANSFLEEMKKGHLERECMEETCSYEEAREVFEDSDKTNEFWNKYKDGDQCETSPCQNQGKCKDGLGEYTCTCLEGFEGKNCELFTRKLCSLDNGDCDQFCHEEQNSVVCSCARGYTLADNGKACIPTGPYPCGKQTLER
Assay: Kass determination, chromogenic substrate hydrolysis, factor Xa
Format: biochemical
Settings: apparent association constant, mean value; set range given with 'or greater'
Where a name gives a salt, the structure may show the parent alone.

- Compound: "CC(C)(N)c1ccc(C(=O)Nc2ccccc2C(=O)Nc2ccc(Cl)cn2)c(OC2CCNCC2)c1"
  Unit Abbrev: "L/mol"
  Kass for factor Xa: "4.3e+08"
- Compound: "NCCOc1cc(N2CCOCC2)ccc1C(=O)Nc1ccc(F)cc1C(=O)Nc1ccc(Cl)cn1 [Example 41, Trifluoroacetate]"
  Unit Abbrev: "L/mol"
  Kass for factor Xa: "4.07e+08"
- Compound: "NCCCOc1cc(N2CCOCC2)ccc1C(=O)Nc1ccc(F)cc1C(=O)Nc1ccc(Cl)cn1"
  Unit Abbrev: "L/mol"
  Kass for factor Xa: "3.013e+09"
- Compound: "CSc1ccc(C(=O)Nc2ccc(Cl)cc2C(=O)Nc2ccc(Cl)cn2)c(OCCCN)c1"
  Unit Abbrev: "L/mol"
  Kass for factor Xa: "3.63e+09"

---

Target: human thrombin (Homo sapiens, UniProt P00734)
Assay: Kass determination, chromogenic substrate hydrolysis, thrombin
Format: biochemical
Details: apparent association constant, mean value; set range given with 'or greater'
Counter-ions that a name gives are not always drawn.
Catalogue of Kass for thrombin (factor IIa) readings, one per entry.

- Molecule: "CSc1ccc(C(=O)Nc2ccc(Cl)cc2C(=O)Nc2ccc(Cl)cn2)c(OCCCN)c1"
  Experimental System: "human thrombin (Homo sapiens, UniProt P00734)"
  Kass for thrombin (factor IIa): "3.08e+08 L/mol"
- Molecule: "NCCOc1cc(N2CCOCC2)ccc1C(=O)Nc1ccc(F)cc1C(=O)Nc1ccc(Cl)cn1 [Example 41, Trifluoroacetate]"
  Experimental System: "human thrombin (Homo sapiens, UniProt P00734)"
  Kass for thrombin (factor IIa): "1.69e+07 L/mol"
- Molecule: "CC(C)(N)c1ccc(C(=O)Nc2ccccc2C(=O)Nc2ccc(Cl)cn2)c(OC2CCNCC2)c1"
  Experimental System: "human thrombin (Homo sapiens, UniProt P00734)"
  Kass for thrombin (factor IIa): "4.2e+06 L/mol"
- Molecule: "NCCCOc1cc(N2CCOCC2)ccc1C(=O)Nc1ccc(F)cc1C(=O)Nc1ccc(Cl)cn1"
  Experimental System: "human thrombin (Homo sapiens, UniProt P00734)"
  Kass for thrombin (factor IIa): "4e+07 L/mol"
